Taken from patent US6569881B1.

Recorded weight % of not inf. control for the following compounds
System: Eimeria acervulina, Eimeria maxima and Eimeria tenella
Assay: Cage experiments coccidiosis/chicks, mixed experimental infection
Format: in vivo, chicken chicks
Details: 10 ppm in feed
Just the number in %, nothing appended.

Some compounds with recorded weight % of not inf. control:
Cc1oc(=O)oc1Cn1c(C(F)(F)F)nc2cc(C(F)(F)F)c(C(F)(F)F)cc21 : 83
Cc1oc(=O)oc1Cn1c(C(F)(F)F)nc2c(C(F)(F)F)cc(C(F)(F)F)cc21 : 82
Cc1oc(=O)oc1Cn1c(C(F)(F)F)nc2c(Br)cc3c(c21)OC(F)(F)C(F)(F)O3 : 81
Cc1oc(=O)oc1Cn1c(C(F)(F)F)nc2cc(C(F)(F)F)c(Cl)cc21 : 75
Cc1oc(=O)oc1Cn1c(C(F)(F)F)nc2cc(Cl)c(C(F)(F)F)cc21 : 30

Exam item: Give weight % of not inf. control (Eimeria acervulina, Eimeria maxima and Eimeria tenella) of the following compound: `Cc1oc(=O)oc1Cn1c(C(F)(F)F)nc2c(Cl)cc3c(c21)OC(F)(F)C(F)(F)O3`
Marked response: 82
